This section presents compounds with their documented TGI values.
# Test system: 786-0 renal
# test-name: NCI tumour cell line growth inhibition, 48 h
quantity-kind: TGI

• OCc1ccc(N2CCCC2)cc1Cl = > 100 µM
• C#CCSc1nc(N)c2ncn(C3OC(COP(=O)(O)O)C(O)C3O)c2n1 (stereo not given) = > 239 µM
• CCN(CC)C(=O)COc1cc2c(O)c3c(O)c(C)c4c(c13)C(=O)C(C)(OC=CC(OC)C(C)C(OC(C)=O)C(C)C(O)C(C)C(O)C(C)C=CC=C(C)C(=O)N2)O4 (stereo not given) = > 100 µM
• CSc1ncc2c(n1)-c1ccccc1OC2NC(C)(C)C (stereo not given) = > 100 µM
• CCN1C(=O)N(CC)C2C1NN=c1s/c(=C\c3ccc[nH]3)c(=O)n12 (stereo not given) = > 100 µM
• COC(=O)/C(C#N)=C1\CCc2ccccc21 = > 100 µM
• Nc1n[nH]c2ccc([C@@H]3Nc4cc5[nH]ncc5cc4[C@H]4C5CCC(C5)[C@@H]34)cc12 (stereo not given in full) = > 66.7 µM
• N#CC12C(=O)N3C(=NC(c4ccccc4)NC3c3ccccc3)C1(C#N)C(c1ccccc1)NC1=C2CCCC1 (stereo not given) = > 100 µM
• O=C(N/N=C/c1ccc(Cl)cc1)c1cc(I)cc(I)c1O = > 100 µM
• CSCCCNC(=O)c1csc(-c2csc(CCNC(=O)CNC(=O)CNC(=O)CNC(=O)OC(C)(C)C)n2)n1 = > 100 µM
